All figures here come from patent US20160108123A1.

Target: T1, human PD-L1 expressed on 300.19 cells (human, UniProt Q9NZQ7 19-290)
T1 construct: whole, on cells; also called huPD-L1; PD-L1-expressing 300.19 cells
T1 sequence (Q9NZQ7 19-290): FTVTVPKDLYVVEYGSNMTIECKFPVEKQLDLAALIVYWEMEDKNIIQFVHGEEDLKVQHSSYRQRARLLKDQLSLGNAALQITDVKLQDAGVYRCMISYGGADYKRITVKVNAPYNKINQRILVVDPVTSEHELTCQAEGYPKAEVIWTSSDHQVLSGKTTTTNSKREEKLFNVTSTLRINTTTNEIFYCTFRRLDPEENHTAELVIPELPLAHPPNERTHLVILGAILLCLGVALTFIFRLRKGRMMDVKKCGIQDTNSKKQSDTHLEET
Test: semi-quantitative ranking in the binding studies (4th column, p-1058; FACS data, p-1056); high number = poorer binder; the column's head says only 'Rank'
Assign Rank to each entry below.
Numbers only.

>  <binder>
BAP058-hum07 (antibody, human IgG4 S228P, kappa, V domains shown, Humanized IgG4(S228P)/human kappa mAb expressed in CHO cells) VH: QVQLVQSGAEVKKPGASVKVSCKASGYTFTSYWMYWIRQSPSRGLEWLGRIDPNSGSTKYNEKFKNRFTISRDDSKNTAYLQMNSLKTEDTAVYYCARDYRKGLYAMDYWGQGTTVTVSS VL: EIVLTQSPATLSLSPGERATLSCKASQDVGTAVAWYLQKPGQSPQLLIYWASTRHTGIPPRFSGSGYGTDFTLTINNIESEDAAYYFCQQYNSYPLTFGQGTKVEIKR

>  <Rank>
2

$$$$
>  <binder>
BAP058-hum09 (antibody, human IgG4 S228P, kappa, V domains shown, Humanized IgG4(S228P)/human kappa mAb expressed in CHO cells) VH: EVQLVQSGAEVKKPGESLRISCKGSGYTFTSYWMYWIRQPPGKGLEWIGRIDPNSGSTKYNEKFKNRVTITADKSTSTAYMELSSLRSEDTAVYYCARDYRKGLYAMDYWGQGTTVTVSS VL: DIVMTQTPLSLPVTPGEPASISCKASQDVGTAVAWYLQKPGQSPQLLIYWASTRHTGIPARFSGSGSGTEFTLTISSLQSEDFAVYYCQQYNSYPLTFGQGTKVEIKR

>  <Rank>
3

$$$$
>  <binder>
BAP058-hum05 (antibody, human IgG4 S228P, kappa, V domains shown, Humanized IgG4(S228P)/human kappa mAb expressed in CHO cells) VH: EVQLVQSGAEVKKPGATVKISCKVSGYTFTSYWMYWIRQSPSRGLEWLGRIDPNSGSTKYNEKFKNRLTISKDTSKNQVVLTMTNMDPVDTATYYCARDYRKGLYAMDYWGQGTTVTVSS VL: EIVLTQSPDFQSVTPKEKVTITCKASQDVGTAVAWYLQKPGQSPQLLIYWASTRHTGVPSRFSGSGSGTDFTFTISSLQPEDIATYYCQQYNSYPLTFGQGTKVEIKR

>  <Rank>
2

$$$$

Next binder, Rank to be filled in.
Specify reported Rank for the binder shown: BAP058-hum15 (antibody, human IgG4 S228P, kappa, V domains shown, Humanized IgG4(S228P)/human kappa mAb expressed in CHO cells) VH: EVQLVQSGAEVKKPGESLRISCKGSGYTFTSYWMYWIRQPPGKGLEWIGRIDPNSGSTKYNEKFKNRVTITADKSTSTAYMELSSLRSEDTAVYYCARDYRKGLYAMDYWGQGTTVTVSS VL: EIVLTQSPDFQSVTPKEKVTITCKASQDVGTAVAWYQQKPGQAPRLLIYWASTRHTGVPSRFSGSGSGTEFTLTISSLQPDDFATYYCQQYNSYPLTFGQGTKVEIKR
17
